- Test system: 966289-007-R4-J1-PDC complex spheroid viability;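 also: spheroids exposed to the agents for seven days before readout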
- experiment summary: Anticancer human tumor 966289-007-R4-J1-PDC patient-derived pancreatic adenocarcinoma cell line growth inhibition [GQUAD]; active = viability on the fitted dose curve at most 10% of control; inactive = the rest
- study conditions: second compound 1 µM; first compound 0.1 µM
Possible outcomes: active, inactive

>  <molecule>
COc1ccc([C@@H](O)c2cc(-c3ncnc4cc(N5CCOCC5)ccc34)c(F)cc2Cl)nn1 + Cc1[nH]c2ccc(F)cc2c1-c1nc2c3cccnc3c3ncccc3c2[nH]1

>  <study system>
966289-007-R4-J1-PDC complex spheroid viability;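 also: spheroids exposed to the agents for seven days before readout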

>  <label>
inactive

$$$$
>  <molecule>
COc1cc(C2c3cc4c(cc3C(OC3OC5COC(C)OC5C(O)C3O)C3COC(=O)C23)OCO4)cc(OC)c1O (stereo not drawn) + Cc1cnc(CNC(=O)c2c(=O)c3ccc(N4CCCN(C)CC4)nc3n3c2sc2ccccc23)cn1

>  <study system>
966289-007-R4-J1-PDC complex spheroid viability;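 also: spheroids exposed to the agents for seven days before readout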

>  <label>
active

$$$$
>  <molecule>
CC(=O)O[C@H]1C(=O)[C@@]2(C)[C@H]([C@H](OC(=O)c3ccccc3)[C@]3(O)C[C@H](OC(=O)[C@H](O)[C@@H](NC(=O)c4ccccc4)c4ccccc4)C(C)=C1C3(C)C)[C@]1(OC(C)=O)CO[C@@H]1C[C@@H]2O + CN(C)c1ccc(Nc2c3ccc(NC(=O)CCN4CCCC4)cc3nc3cc(NC(=O)CCN4CCCC4)ccc23)cc1

>  <study system>
966289-007-R4-J1-PDC complex spheroid viability;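 also: spheroids exposed to the agents for seven days before readout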

>  <label>
active

$$$$
